molecular target: GluA1o-γ8 (GRIA1o-CACNG8 fusion construct; TARP γ8 dependent AMPA receptor) (Homo sapiens (Human), UniProt P42261+Q8WXS5); test: Calcium flux assay (FLIPR), inhibition of glutamate response of GluA1o-γ8 channel; format: cell-based; conditions: HEK293 cells stably expressing GRIA1o-CACNG8 fusion; 15 μM glutamate; pIC50 = negative log of IC50 in molar; read-out: GluR1-γ8 (pIC50) (converted)
Sequence (P42261 other isoform, or with tags, fused parts or gaps): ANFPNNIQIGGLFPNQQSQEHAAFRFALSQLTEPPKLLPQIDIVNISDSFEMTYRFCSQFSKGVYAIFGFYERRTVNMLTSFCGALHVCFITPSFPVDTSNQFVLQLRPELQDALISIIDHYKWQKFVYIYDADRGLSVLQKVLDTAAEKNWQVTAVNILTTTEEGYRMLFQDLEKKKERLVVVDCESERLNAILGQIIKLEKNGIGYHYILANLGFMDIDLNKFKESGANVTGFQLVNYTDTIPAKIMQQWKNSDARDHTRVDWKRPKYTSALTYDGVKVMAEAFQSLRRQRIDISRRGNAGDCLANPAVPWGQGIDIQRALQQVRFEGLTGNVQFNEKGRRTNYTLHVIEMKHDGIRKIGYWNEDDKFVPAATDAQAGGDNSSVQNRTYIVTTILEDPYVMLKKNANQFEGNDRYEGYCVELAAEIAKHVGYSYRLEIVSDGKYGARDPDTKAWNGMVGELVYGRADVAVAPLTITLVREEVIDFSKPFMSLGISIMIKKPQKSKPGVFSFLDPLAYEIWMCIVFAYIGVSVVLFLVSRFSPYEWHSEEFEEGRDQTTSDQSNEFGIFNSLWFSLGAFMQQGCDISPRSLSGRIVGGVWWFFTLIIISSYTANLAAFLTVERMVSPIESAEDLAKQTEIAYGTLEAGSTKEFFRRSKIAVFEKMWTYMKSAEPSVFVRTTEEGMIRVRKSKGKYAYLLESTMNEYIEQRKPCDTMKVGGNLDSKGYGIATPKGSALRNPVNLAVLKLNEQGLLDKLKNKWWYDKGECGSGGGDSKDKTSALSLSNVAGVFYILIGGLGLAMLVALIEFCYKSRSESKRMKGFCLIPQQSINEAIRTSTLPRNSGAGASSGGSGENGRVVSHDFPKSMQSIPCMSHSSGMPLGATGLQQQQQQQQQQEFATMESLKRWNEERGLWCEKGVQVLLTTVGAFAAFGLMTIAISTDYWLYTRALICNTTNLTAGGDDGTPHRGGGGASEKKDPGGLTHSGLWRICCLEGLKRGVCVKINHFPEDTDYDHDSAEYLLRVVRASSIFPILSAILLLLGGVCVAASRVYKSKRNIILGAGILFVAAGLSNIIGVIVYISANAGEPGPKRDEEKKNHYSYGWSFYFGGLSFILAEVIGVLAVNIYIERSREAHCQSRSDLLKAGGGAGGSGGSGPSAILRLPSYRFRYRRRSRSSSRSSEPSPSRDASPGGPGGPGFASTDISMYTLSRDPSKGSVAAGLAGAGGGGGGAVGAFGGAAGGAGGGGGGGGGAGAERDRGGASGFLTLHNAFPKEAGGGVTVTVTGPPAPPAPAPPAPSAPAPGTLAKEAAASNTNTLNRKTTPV
readout_type: IC50 (nM)
Note: unit nM is implicit; provide only the numeric part.

N#Cc1ccc(-c2nc3c(N4CCOCC4)nccn3c2-c2ccc3[nH]ncc3c2)cc1 :: 3.98
O=C1Cc2cc(-c3c(-c4ccccc4)nc4c(N5CCC(CF)CC5)nccn34)ccc2N1 :: 0.251
CC(C)(C)c1nc2c(N3CCOCC3)nccn2c1-c1ccc2c(c1)CC(=O)N2 :: 158

Pending molecule:
Exercise: May I ask what IC50 has been recorded for `O=C1Cc2cc(-c3c(-c4ccccc4)nc4c(C5=CCOCC5)nccn34)ccc2N1` ?
Solution: 7.94

###

Each entry below carries its recorded log10 IC50.
target: GluA1o-γ8 (GRIA1o-CACNG8 fusion construct; TARP γ8 dependent AMPA receptor) (Homo sapiens (Human), UniProt P42261+Q8WXS5); assay: Calcium flux assay (FLIPR), inhibition of glutamate response of GluA1o-γ8 channel; assay type: cell-based; conditions: HEK293 cells stably expressing GRIA1o-CACNG8 fusion; 15 μM glutamate; pIC50 = negative log of IC50 in molar; read-out: GluR1-γ8 (pIC50) (converted)
All values: base-10 log of IC50 in nM.

Here's what some known entries look like.
O=C1Nc2ccc(-c3c(-c4ccc(F)cc4)nc4c(N5CCOCC5)nccn34)cc2CO1 :: 0.90
N#Cc1ccc(-c2nc3c(N4CCOCC4)nccn3c2-c2ccc3c(c2)CC(=O)N3)cc1 :: 0.30

Pending compound:
Exercise: May I ask what log10 IC50 has been recorded for `CCN(CC)c1nccn2c(-c3ccc4c(c3)CC(=O)N4)c(-c3ccc(F)cc3)nc12` ?
Solution: 0.60

###

target: GluA1o-γ8 (GRIA1o-CACNG8 fusion construct; TARP γ8 dependent AMPA receptor) (Homo sapiens (Human), UniProt P42261+Q8WXS5); test: Calcium flux assay (FLIPR), inhibition of glutamate response of GluA1o-γ8 channel; format: cell-based; details: HEK293 cells stably expressing GRIA1o-CACNG8 fusion; 15 μM glutamate; pIC50 = negative log of IC50 in molar; read-out: GluR1-γ8 (pIC50) (converted)
Response field label: string, one of fulfilled (IC50 strictly below 100 nM) or not fulfilled.

Worked cases, answers included:
Oc1ccc(-c2c(-c3ccc(F)cc3)nc3c(N4CCCC4)nccn23)cc1 [Example 126] :: fulfilled
CC(C)(C)c1nc2c(N3CCC(O)CC3)nccn2c1-c1ccc2c(c1)CC(=O)N2 [Example 88] :: not fulfilled
O=C1Cc2cc(-c3c(C(=O)Nc4ccccc4)nc4c(N5CCOCC5)nccn34)ccc2N1 [Example 137] :: fulfilled
C[S+]([O-])c1nccn2c(-c3ccc4c(c3)CC(=O)N4)c(-c3ccc(F)cc3)nc12 (centres unmarked) [Example 128] :: not fulfilled

Exercise: Criterion: IC50 strictly below 100 nM. Is it met by COC1CCN(c2nccc3c(-c4ccc5c(c4)CC(=O)N5)c(-c4ccccc4)nn23)CC1 [Example 189] ?
Solution: fulfilled

Exercise: Can you check O=C1Cc2cc(-c3c(-c4ccc(F)cc4)nn4c(N5CC(F)(F)C5)nccc34)ccc2N1 [Example 176] next?
Solution: fulfilled

Exercise: Can you check Oc1ccc(-c2c(-c3ccc(F)cc3)nc3c(N4CCNCC4)nccn23)cc1 [Example 5] next?
Solution: not fulfilled

Exercise: Can you check O=C1CCN(c2nccc3c(-c4ccc5c(c4)CC(=O)N5)c(-c4ccc(F)cc4)nn23)CC1 [Example 174] next?
Solution: fulfilled

Exercise: Can you check O=C1Cc2cc(-c3c(-c4ccccc4)nn4c(N5CCC(O)CC5)nccc34)ccc2N1 [Example 187] next?
Solution: fulfilled

Exercise: Can you check O=C1Cc2cc(-c3c(-c4ccccc4)nc4c(N5CC(F)C5)nccn34)ccc2N1 [Example 81] next?
Solution: fulfilled

Exercise: Can you check O=C1Cc2cc(-c3c(C4CC4)nc4cnc(C(F)(F)F)cn34)ccc2N1 [Example 219] next?
Solution: not fulfilled

Exercise: Can you check Fc1ccc(-c2nc3c(N4CCOCC4)nccn3c2-c2ccc3[nH]ncc3c2)cc1 [Example 10] next?
Solution: fulfilled

Exercise: Can you check CO[C@H]1CCN(c2nccc3c(-c4ccc5c(c4)CC(=O)N5)c(-c4ccccc4)nn23)C1 [Example 197] next?
Solution: fulfilled

Exercise: Can you check CC(C)c1nn2c(N3CCOCC3)ncc(F)c2c1-c1ccc2c(c1)CC(=O)N2 [Example 235] next?
Solution: not fulfilled

Exercise: Can you check O=C1Cc2cc(-c3c(C4CC4)nc4c(N5CCOCC5)nccn34)ccc2N1 [Example 91] next?
Solution: not fulfilled

Exercise: Can you check O=C(Nc1ccccc1)c1nc2c(N3CCOCC3)nccn2c1-c1ccc(O)cc1 [Example 138] next?
Solution: fulfilled

Exercise: Can you check CCCNC(=O)c1nc2c(N3CCOCC3)nccn2c1-c1ccc(O)cc1 [Example 148] next?
Solution: not fulfilled
